molecular target: Recombinant purified human BTK (Homo sapiens); construct: purchased Promega V9071; test: BTK kinase inhibitory activity, ADP-Glo kinase assay (Promega V9071); format: biochemical; settings: @1uM compound
Measure: inhibition at 1 µM (%)
Could you give me the number in %? Just the number is fine.

C=CC(=O)N1CCC[C@@H](Nc2nc(Nc3ccc(Oc4ccccc4)cc3)nc3[nH]ccc23)C1 : 1
C=CC(=O)N1CC[C@@H](C)[C@@H](N(C)c2nc(Nc3ccc(N4CCN(C)CC4)cc3)nc3[nH]ccc23)C1 : 48
C[C@@H]1CCN(C(=O)CC#N)C[C@@H]1N(C)c1nc(Nc2ccc(N3CCN(C)CC3)cc2)nc2[nH]ccc12 : 3.3

Turning now to a further record.
Problem: Entry C=CC(=O)NC1CCCC(Nc2nc(Nc3ccc(N4CCN(C)CC4)cc3)nc3[nH]ccc23)C1 (stereo not shown) : reported inhibition at 1 µM = ?
Result: 47.1

----------
molecular target: Recombinant purified human JAK3 (Homo sapiens, UniProt P52333); construct: purchased Promega V9441; experiment: JAK3 kinase inhibitory activity, ADP-Glo kinase assay (Promega V9441); type: biochemical; settings: @100nM compound; printed in the JAK3 IC50 column
Sequence (P52333 whole entry): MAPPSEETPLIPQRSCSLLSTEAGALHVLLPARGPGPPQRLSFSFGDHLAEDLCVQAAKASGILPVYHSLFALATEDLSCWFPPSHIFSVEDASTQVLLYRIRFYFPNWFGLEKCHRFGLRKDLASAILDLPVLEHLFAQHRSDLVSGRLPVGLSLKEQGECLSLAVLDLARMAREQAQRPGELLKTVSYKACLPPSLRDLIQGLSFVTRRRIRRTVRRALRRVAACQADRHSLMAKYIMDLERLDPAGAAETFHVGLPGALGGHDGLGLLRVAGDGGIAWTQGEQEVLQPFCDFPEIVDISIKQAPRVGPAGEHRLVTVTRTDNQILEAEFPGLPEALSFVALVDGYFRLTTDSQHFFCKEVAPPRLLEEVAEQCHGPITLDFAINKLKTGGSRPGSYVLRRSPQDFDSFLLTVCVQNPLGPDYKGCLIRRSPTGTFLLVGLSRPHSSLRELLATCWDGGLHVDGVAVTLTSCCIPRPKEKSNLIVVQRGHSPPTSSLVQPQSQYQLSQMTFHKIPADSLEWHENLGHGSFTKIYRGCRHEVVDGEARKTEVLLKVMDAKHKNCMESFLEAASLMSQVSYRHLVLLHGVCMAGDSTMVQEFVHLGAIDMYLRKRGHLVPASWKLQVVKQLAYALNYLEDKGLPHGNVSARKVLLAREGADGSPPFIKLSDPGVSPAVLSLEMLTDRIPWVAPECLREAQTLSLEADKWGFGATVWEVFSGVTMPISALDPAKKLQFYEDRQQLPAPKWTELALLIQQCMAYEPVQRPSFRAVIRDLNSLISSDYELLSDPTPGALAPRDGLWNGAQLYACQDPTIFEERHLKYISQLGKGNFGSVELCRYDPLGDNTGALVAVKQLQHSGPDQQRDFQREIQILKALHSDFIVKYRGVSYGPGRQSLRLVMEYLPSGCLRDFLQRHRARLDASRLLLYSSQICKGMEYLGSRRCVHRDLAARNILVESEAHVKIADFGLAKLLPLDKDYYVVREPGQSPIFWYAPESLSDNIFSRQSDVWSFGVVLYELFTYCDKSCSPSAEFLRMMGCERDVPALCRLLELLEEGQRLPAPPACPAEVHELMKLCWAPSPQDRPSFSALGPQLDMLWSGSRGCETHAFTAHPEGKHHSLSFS
Assign class by inhibition at 0.1 µM: not lower than 30% means Y; lower than 30% means N.

// known answers, use as guide
C=CC(=O)N1CCC[C@@H](Nc2nc(Nc3ccc(N4CCN(C)CC4)cc3)nc3[nH]ncc23)C1 [Example 30] : Y
C=CC(=O)N1CCC[C@@H](Nc2nc(Nc3cccc(-n4nc(C)cc4C)c3)nc3[nH]ccc23)C1 [Example 10] : Y
C=CC(=O)N1CCC[C@@H](Nc2nc(Nc3cn(C)nc3C)nc3[nH]ccc23)C1 [Example 22] : N
C=CC(=O)N1CCC[C@H](Nc2nc(Nc3cccc(NC(=O)N4CCCC4)c3)nc3[nH]ccc23)C1 [Example 3] : N

Problem: Textbook exercise: given the entry C=CC(=O)N1CCC[C@H](Nc2nc(Nc3ccc(N4CCN(C)CC4)cc3)nc3[nH]ccc23)C1 [Example 11] , state whether its inhibition at 0.1 µM is greater than or equal to 30%.
Result: Y

----------
target: Recombinant purified human BTK (Homo sapiens, UniProt Q06187); assay: BTK kinase inhibitory activity, ADP-Glo kinase assay (Promega V9071); conditions: ATP 10 uM, 8 ng BTK per reaction, 1 hour 30 °C, chemiluminescence
Sequence (Q06187 whole entry): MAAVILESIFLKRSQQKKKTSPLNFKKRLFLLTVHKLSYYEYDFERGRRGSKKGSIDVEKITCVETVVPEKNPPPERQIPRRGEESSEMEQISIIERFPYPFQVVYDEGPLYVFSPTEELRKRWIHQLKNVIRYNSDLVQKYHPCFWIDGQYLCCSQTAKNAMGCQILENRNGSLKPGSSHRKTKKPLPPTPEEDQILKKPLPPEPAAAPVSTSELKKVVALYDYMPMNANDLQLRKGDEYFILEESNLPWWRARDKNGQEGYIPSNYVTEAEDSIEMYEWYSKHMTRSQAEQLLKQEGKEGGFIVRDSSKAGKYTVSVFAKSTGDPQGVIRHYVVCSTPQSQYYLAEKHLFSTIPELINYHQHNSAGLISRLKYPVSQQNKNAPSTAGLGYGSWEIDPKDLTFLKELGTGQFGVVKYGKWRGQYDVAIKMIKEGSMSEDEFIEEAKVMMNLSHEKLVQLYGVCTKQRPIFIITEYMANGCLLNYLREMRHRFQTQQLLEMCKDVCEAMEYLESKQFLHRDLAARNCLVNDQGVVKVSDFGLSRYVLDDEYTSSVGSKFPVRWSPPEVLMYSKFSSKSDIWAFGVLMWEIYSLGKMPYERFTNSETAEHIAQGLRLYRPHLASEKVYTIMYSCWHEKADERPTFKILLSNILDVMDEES
Measure: IC50 (nM)
Could you give me the number in nM? Just the number is fine.

Past entries and their recorded results:
CCn1cc(Nc2nc(N[C@H]3CN(C(=O)/C(C#N)=C/C4CC4)CC[C@H]3C)c3c(Cl)n[nH]c3n2)cn1 [Example 169] : 2.2
C=CC(=O)N1CCC[C@@H](Nc2nc(Nc3cnn(CC(F)(F)F)c3)nc3[nH]ncc23)C1 [Example 144] : 1.5
C=CC(=O)N1CCC[C@@H](Nc2nc(Nc3cnn(CCN(CC)CC)c3)nc3[nH]cc(Cl)c23)C1 [Example 95] : 5.9
C=CC(=O)N1CCC[C@@H](Nc2nc(Nc3cnn(Cc4cccc(OC)c4)c3)nc3[nH]ccc23)C1 [Example 20] : 9.5
C=CC(=O)N1CCC[C@@H](Nc2nc(Nc3cnn(C4CC4)c3)nc3[nH]cc(C#N)c23)C1 [Example 89] : 0.864

Problem: Entry C=CC(=O)N1CCC[C@@H](Nc2nc(Nc3cnn(C(C)(C)C)c3)nc3[nH]ncc23)C1 [Example 66] : reported IC50 = ?
Result: 1.7

Problem: Entry C=CC(=O)N1CCC[C@@H](Oc2nc(Nc3cnn(C4CC4)c3)nc3[nH]nc(Cl)c23)C1 [Example 153] : reported IC50 = ?
Result: 2.2
